System: HCT-15 colon
TEST: NCI-60 one-dose screen, 48 h
MEASUREMENT CONTEXT: 10 µM unless noted
Protocol: Growth inhibition of the HCT-15 human tumor cell line is measured as a screen for anti-cancer activity. Cells are grown in 96 well plates and exposed to the test compound for 48 hours. Compounds are tested at a single concentration, which is 10^-5 M for most compounds. The reported endpoint is percent growth (GI% or GIPRCNT), where numbers from 0 - 100% represent growth inhibition, and numbers from -100% - 0 represent cell death. For example, a value of 40 represents 60% growth inhibition. […]
About 83,000 compounds went through this panel and 20% of them were active in at least one assay; those are over-represented in the sample as a whole. Active and inactive are the calls of the source. Rule for the calls: active = growth percent below 10; inactive = the rest.
Outcome codes: 1.0 = active, 0.0 = inactive

>>> assigned_class("COc1cc(C(=O)/C=C/c2c(C)n([O-])c3ccc(C)cc3[n+]2=O)cc(OC)c1OC")
0.0
>>> assigned_class("O=[N+]([O-])c1cccc(-c2nc3sccn3c2-c2ccnc(NCCCNS(=O)(=O)c3cccc(F)c3)n2)c1")
1.0
>>> assigned_class("Cn1cc(-c2ccc(-c3cn(C)c4ncccc34)[nH]2)c2cccnc21")
0.0
>>> assigned_class("Brc1cccc(-c2nc(-c3ccc4c(c3)OCCO4)co2)c1")
0.0
>>> assigned_class("COc1ccc(-c2cc(=O)[nH]c3c(OC)c4ccccc4c(OC)c23)cc1")
0.0
>>> assigned_class("C#Cc1nc(Nc2cc(C)[nH]n2)c2ccccc2n1")
1.0
>>> assigned_class("Nc1nc(SCc2ccccc2)c2ncn(C3CCCC3)c2n1")
1.0
>>> assigned_class("O=C1Nc2ccccc2C12CC(c1ccc(Cl)cc1)=NN2 (stereo not given)")
0.0
>>> assigned_class("O=C1NC(=O)C(CC(=O)n2c(-c3ccccc3)nc3ccccc32)C(=O)N1")
0.0
>>> assigned_class("C=C1CCC2C3(C)COC(c4ccc(SC)cc4)OC3CCC2(C)C1C/C=C1/C(=O)OCC1O (stereo not given)")
0.0

---

Tested on: SK-MEL-2 melanoma
TEST: NCI-60 one-dose screen, 48 h
MEASUREMENT CONTEXT: 10 µM unless noted
This is part of a sample that, as a whole, favours compounds with a hit. Of some 83,000 tested, about 20% had one in any assay. Activity calls are given as the source filed them. How the source made its calls: active means growth percent below 10; inactive means the rest.
Labels: 1 for active, -1 for inactive

>>> assigned_class("COc1ccc(C/C(C)=C(\\c2ccc(OCCN3CCCCCC3)cc2)c2ccc(OC(=O)C3CCCCC3)cc2)cc1")
-1
>>> assigned_class("N=c1c2ccccc2nc2n1CCCCC2")
-1
>>> assigned_class("O=C(N/N=C/c1ccc(O)cc1O)c1cccnc1")
-1
>>> assigned_class("CC1=NNC(=O)C1C (stereo not given)")
-1
>>> assigned_class("COc1cc(NC(N)=NCC(C)(C)COc2ccc(C(F)(F)F)cc2)cnc1C#N")
-1
>>> assigned_class("Cc1cc2c(cc1C)NC1=C(N2)OC(c2c3ccccc3cc3ccccc23)C1=O (stereo not given)")
-1
>>> assigned_class("O=C(C[C@@H](C(=O)NCc1cccc(C(F)(F)F)c1)N1C(=O)[C@@H](N2C(=O)OC[C@@H]2c2ccccc2)[C@H]1/C=C/c1ccccc1)NC1CCN(Cc2ccccc2)CC1")
-1
>>> assigned_class("Oc1c(Cl)cc(Cl)cc1CNc1nccnn1")
-1
>>> assigned_class("CC(=O)Oc1cc2cnc3c4cc(OC(C)=O)c(OC(C)=O)cc4ccc3c2cc1OC(C)=O")
-1
>>> assigned_class("CC1(C)CC(C(=O)OCCCCCCCCCCC[P+](c2ccccc2)(c2ccccc2)c2ccccc2)C(C)(C)N1O (stereo not given)")
1
>>> assigned_class("COc1ccc(C(=O)/C=C/c2cc3ccccc3[nH]c2=O)cc1")
-1
>>> assigned_class("CCCCN(CC)CCCCCCCCCCN1CCCc2cc(OC)ccc21")
-1
>>> assigned_class("Nc1c(C(=O)Nc2cccc3c2OCCO3)sc2nc3c(cc12)CN(Cc1ccccc1)CC3")
-1
>>> assigned_class("CC(C)c1c(C(=O)Nc2ccccc2)c(-c2ccccc2)c(-c2ccc(F)cc2)n1CC[C@@H]1CC=CC(=O)O1")
1
>>> assigned_class("CCN(C(=O)CN1CCN(c2cc3c(cc2F)c(=O)c(C(=O)O)cn3CC)CC1)c1nc(-c2ccccc2)cs1")
1
>>> assigned_class("COc1ccc(-c2cn3c(ccc4ccccc43)n2)cc1")
-1
>>> assigned_class("COc1ccccc1N1CCN(CCn2c(=O)c3c(c4ccccc4n3C)n(C)c2=O)CC1")
-1
>>> assigned_class("C=CC[N+]1(CCO)CCN=C1CCCCCCCCCCCCC (stereo not given)")
1
>>> assigned_class("CCOC(=O)CC(=O)c1c(C)cc(C)cc1C")
-1
>>> assigned_class("O=[N+]([O-])c1cccc(C2CC(c3ccccc3)=Nc3ccccc3S2)c1 (stereo not given)")
-1
>>> assigned_class("COC1=CC(=O)C(OC)=C(OC)C1=O")
-1
>>> assigned_class("O=C1/C(=C/c2ccccc2)CN(CCC(=O)N2C/C(=C\\c3ccccc3)C(=O)/C(=C/c3ccccc3)C2)C/C1=C\\c1ccccc1")
-1
>>> assigned_class("COc1cc(-c2c3sc(=O)[nH]c3nc3c2c(=O)[nH]n3C(C)C)cc2c1OCO2")
-1
>>> assigned_class("CNCc1cccc2c1OCCOCCOCCN(C)S(=O)(=O)c1ccc(cc1)-c1cnc(N)c(n1)C(=O)N2")
-1
>>> assigned_class("CCCCCC(=O)N(CCCC)CCCC")
-1
>>> assigned_class("c1ccc2c(Nc3cccc4ccccc34)cccc2c1")
-1
>>> assigned_class("O=C(COc1cccc(/C=C2/Oc3ccccc3C2=O)c1)Nc1nccs1")
1
>>> assigned_class("CCOC(=O)c1cnc2ccc(OC)cc2c1Nc1cccc(S(=O)(=O)NC)c1")
-1
>>> assigned_class("Cc1ccc(Nc2c(C(N)=O)cnc3ccc(-c4csc(N)n4)cc23)cc1")
-1
>>> assigned_class("C/C=C/C(N)=O")
-1
>>> assigned_class("CCCC(=O)Oc1ccc(/C(=C(/CC)Cc2ccccc2)c2ccc(OCCN3CCCC3)cc2)cc1")
-1
>>> assigned_class("CCCCN(CCCC)Cc1c(C)[nH]c2cc(OC)ccc2c1=O")
-1
>>> assigned_class("O=C1O[C@H]([C@H](O)CO)C(O)=C1O")
-1
>>> assigned_class("C/C(=C(/c1ccc(O)cc1)c1ccc(Cl)cc1)c1ccccc1")
1
>>> assigned_class("COc1cc2nc3cc([N+](=O)[O-])ccc3c(NCCCNCC(C)(C)O)c2cc1OC")
1
>>> assigned_class("COc1cc(/C=C2\\CN(C(=O)CCN3CCC(=NO)CC3)C/C(=C\\c3cc(OC)c(OC)c(OC)c3)C2=O)cc(OC)c1OC")
1
>>> assigned_class("CCCCCCCCCCCCCCCC(=O)OCC1OC(n2cnc3c(=S)nc(N)[nH]c32)C(OC(=O)CCCCCCCCCCCCCCC)C1OC(=O)CCCCCCCCCCCCCCC (stereo not given)")
-1
>>> assigned_class("CCCCCCCCOC(=O)CC[C@@H](C)[C@H]1CC[C@H]2[C@@H]3[C@H](OC(=O)CCN)C[C@@H]4C[C@H](OC(=O)CCN)CC[C@]4(C)[C@H]3C[C@H](OC(=O)CCN)[C@]12C")
-1
>>> assigned_class("c1ccc(-c2nc(N3CCOCC3)c3c4c(sc3n2)CCCCC4)nc1")
-1
>>> assigned_class("Cc1cc(N/N=C/c2nc(-c3ccc(Cl)cc3)oc2C)c2cc(Br)ccc2n1")
-1
